Source listed as PubChem BioAssay (NCATS).

Tested on: MKL-1
Assay: qHTS assay to identify novel small-molecules to repurpose for Merkel cell carcinoma treatment (AID 1296009); further: nearly all actives have a fitted effect of over 60% in size
Settings: MCC and control cell lines, CellTiter-Glo viability, 72 h; series mostly up to 46 µM
From the text: MCC is a rare and aggressive neuroendocrine skin cancer with limited treatment options. Approximately 80% of MCCs have the Merkel cell polyomavirus (MCPyV) DNA integrated into the host genome (virus-positive: VP-MCC) and viral oncogenes drive oncogenesis. The remaining MCCs are virus-negative (VN-MCC) and are caused by UV mutagenesis. […] Using cell viability as a readout (CellTiter-Glo assay) we found both overlapping and distinct drugs that can be repurposed for the treatment of VP-MCC and VN-MCC. […]
Records with an inconclusive call do not appear. Active and inactive are the calls of the source. The call rests on the fitted dose curve; in most records, active means well fitted inhibition curve with a large enough effect; inconclusive means small, poorly fitted or top-dose-only effect; inactive means flat fitted curve, though single readings scatter.
Classes used: t for active, f for inactive

MOLECULE | CLASS
c1ccc2c(Oc3nc(Nc4ccc(N5CCOCC5)cc4)c4ncn(C5CCCCC5)c4n3)cccc2c1 | f
CC(=O)N[C@@H]1[C@H](O[C@@H]2c3ccc(c(Cl)c3)Oc3cc4cc(c3O[C@H]3O[C@H](CO)[C@@H](O)[C@H](O)[C@H]3NC(=O)CCCCCCCC(C)C)Oc3ccc(cc3Cl)C[C@H]3NC(=O)[C@H](N)c5ccc(O)c(c5)Oc5cc(O)cc(c5)[C@H](NC3=O)C(=O)N[C@H]4C(=O)N[C@H]3C(=O)N[C@@H]2C(=O)N[C@@H](C(=O)O)c2cc(O)cc(O[C@H]4O[C@H](CO)[C@@H](O)[C@H](O)[C@H]4O)c2-c2cc3ccc2O)O[C@H](CO)[C@@H](O)[C@@H]1O | f
C=C1C(=CC=C2CCC[C@]3(C)[C@@H]([C@H](C)CCCC(C)(C)O)CC[C@@H]23)C[C@@H](O)C[C@@H]1O | t
CC(=O)NCC(=O)N1[C@H]2CC[C@H]1c1cc(Nc3ncc(C(F)(F)F)c(NC4CCC4)n3)ccc12 | t
Cc1ccc(O)c(C(CCN(C(C)C)C(C)C)c2ccccc2)c1 (stereo not given) | f

====

Test: P-glycoprotein substrates identified in KB-8-5-11 adenocarcinoma cell line, qHTS therapeutic library screen (AID 1346987); further: nearly all actives have a fitted effect of over 65% in size
Details: KB-8-5-11 (P-gp overexpressing) viability, CellTiter-Glo, 72 h; series mostly up to 44.5 µM
Results filed as inconclusive are left out. Activity calls are given as the source filed them. Calls come from the whole dose curve; as a rule, active = well fitted inhibition curve with a large enough effect; inconclusive = small, poorly fitted or top-dose-only effect; inactive = flat fitted curve, though single readings scatter.
Classes used: active, inactive

COMPOUND | CLASS
C[C@H](NC(=O)Cc1cc(F)cc(F)c1)C(=O)N[C@H](C(=O)OC(C)(C)C)c1ccccc1 | active
C=CC(=O)Nc1cccc(Nc2nc(NC3CCC(N(C)C)CC3)nc3c2ncn3C(C)C)c1 (stereo not drawn) | inactive
Nc1nc(=O)n([C@H]2CSC(CO)O2)cc1F (stereo partly drawn) | inactive
c1cc(N[C@@H]2CCNC2)nc(-c2cnc3ccc(-c4cn[nH]c4)cn23)c1 | inactive
C[C@H](O)[C@@H]1C(=O)N2C(C(=O)O)=C(S[C@@H]3CN[C@H](CNS(N)(=O)=O)C3)[C@@H](C)[C@@H]12 | inactive
CCOC(=O)N1CCN([N+]([O-])=NOc2ccc([N+](=O)[O-])cc2[N+](=O)[O-])CC1 | inactive
O=C(O)C=Cc1ccc(Cn2ccnc2)cc1 | inactive
O=c1[nH]c(=O)n([C@H]2C[C@@H](O)[C@@H](CO)O2)cc1C=CBr | inactive
C[C@@H](Oc1ccc2[nH]nc(C=Cc3cnn(CCO)c3)c2c1)c1c(Cl)cncc1Cl | active
Nc1nc2c(c(=O)[nH]1)N(C=O)[C@H](CNc1ccc(C(=O)N[C@@H](CCC(=O)O)C(=O)O)cc1)CN2 | inactive
CCCCC(=O)O[C@]1(C(=O)CO)[C@@H](C)C[C@H]2[C@@H]3CCC4=CC(=O)C=C[C@]4(C)[C@@]3(F)[C@@H](O)C[C@@]21C | inactive
O=C(CCCCCCC(=O)Nc1cccnc1)NO | active
CON=C(C(=O)N[C@@H]1C(=O)N2C(C(=O)O)=C(CSC(=O)c3ccco3)CS[C@H]12)c1csc(N)n1 | inactive
